Assay summary: melting temperature; fluorescence melt of hairpins on a sequencing array, two-state fit, raised by 9.35 °C to match UV melts
Setup conditions: sodium 0.088 M
Tm by entry:
# number only, unit °C dropped from output

Here are 8 sequences together with their reported answers.
INSERT INTO measurements (record_sequence, assay_metric, measured) VALUES
  ('GACAGCGAAAGCTGGGTC ((((((....)))..)))', 'Tm', 62),
  ('GTCTCACGAAAGTGCGAC (((.(((....))).)))', 'Tm', 50.3),
  ('GTTGTTGGAAACAACAGC (.(((((....))))).)', 'Tm', 52.8),
  ('TTGTCGAAAGACAA (((((....)))))', 'Tm', 55),
  ('GTGGGGGGAAACTCCCGC (.(((.(....).))).)', 'Tm', 48.8),
  ('GTGCCCGCGAAAGCGCAC (((..(((....))))))', 'Tm', 45.5),
  ('GATCACCGAAAGGTAATC (((.(((....))).)))', 'Tm', 39.5),
  ('GCATTGGCGAAAGCCTGC (((..(((....))))))', 'Tm', 44.3);

# input Give its Tm value. Item: GGAACTCGAAAGAGGTCC (((.(((....))).)))
# output 60

# input Similarly, GCCCACCGAAAGGTTGGC (((.(((....))).))) ?
# output 55.3

# input Further, for GATCTTTTTAAAGATC ((((((....)))))) ?
# output 49.6

# input Please give the result for GCGAGTGCTCGC ((((....)))) too.
# output 52

# input Okay, and GGAGCGCGAAAGCGTCC (((.(((....)))))) ?
# output 52.1

# input What do you get for GGAGCAGGAAACTGCCCC ((.((((....)))).)) ?
# output 49.7

# input Now the sequence GCTTTCGAAAGAAAGAGC ((((((....)))..)))
# output 43.5

# input And then GCAGACGAAAGTCGGTGC ((((((....)))..))) , what is it?
# output 50.2

# input Lookup AACTTGAAAAAGTT (((((....)))))
# output 30.4

# input Another sequence to check: GGAATGCGAAAGCACTCC (((.(((....))).)))
# output 48.3

# input Please answer likewise for GTACTACGAAAGTATAC (((.(((....))))))
# output 27.9

# input Entry to check: GTCTTTGGAAACGAAGAC (((((.(....).)))))
# output 45

# input Try this sequence too: GGAGCCGGAAACGGTTCC (((.(((....))).)))
# output 58.5

# input Another: GCTTGGCGAAAGCTAAGC ((((.((....)).))))
# output 64.7

# input Try this sequence next: GATCGCTCGGGCGATC ((((((....))))))
# output 69.2

# input # repeat for GCTGACGAAAGTCGCAGC ((((((....)))..)))
# output 49.5

# input Same thing, different sequence: GTGAGGGGAAACCCTTAC ((.((((....)))).))
# output 44.5

# input # iterate: GCGAATCGAAAGATCCGC (((.(((....))).)))
# output 52.3
